- Read-out: Interleukin-1 alpha (IL1a), IL1A (gene 3552)
- method: BSK_BE3C_IL1a: BioMAP Diversity Plus: BE3C Assay for Interleukin-1 alpha (IL1a) Biomarker Activity (AID 2283016)
- condition: primary human bronchial epithelial cells; actives raise or lower the signal
- Experimental: BSK_BE3C is a cell-based, multiplexed-readout assay that uses bronchial epithelial cell, a human lung primary cell, with measurements taken at 24 hours after chemical dosing in a 96-well plate.BSK_BE3C_IL1a is an assay component measured in the BSK_BE3C assay. It measures IL-1a antibody related to regulation of gene expression using ELISA technology.Data from the assay component BSK_BE3C_IL1a was analyzed into 1 assay endpoint. […]
The source made the active and inactive calls. The calls were made as follows: active = hit-call score of the fitted dose curve at least 0.9, where 1 is the maximum; inactive = score below 0.9.
Lab note: assign the record to one of 1.0 for active, 0.0 for inactive

Record request — test call for `O=C(O)Cc1cc(I)c(Oc2ccc(O)c(I)c2)c(I)c1`
1.0

Record request — test call for `Cc1ccc(C(C)C)cc1`
0.0

Record request — test call for `CC[C@H](NC(=O)c1cc(F)ccc1NS(=O)(=O)c1cccc2cccnc12)c1ccccc1`
0.0

Record request — test call for `CCCOC(=O)c1cc(O)c(O)c(O)c1`
0.0

Record request — test call for `CCCCCCCCCC(=O)O`
0.0

Record request — test call for `Cc1cc(F)ccc1-c1cc(N2CC[C@@H](O)[C@H]2CO)ncc1N(C)C(=O)C(C)(C)c1cc(C(F)(F)F)cc(C(F)(F)F)c1`
1.0

Record request — test call for `CN(C)C(=O)C1(N2CCCCC2)CCN(CC[C@@]2(c3ccc(Cl)c(Cl)c3)CN(C(=O)c3ccccc3)CCO2)CC1`
1.0

Record request — test call for `OCCO`
0.0

Record request — test call for `CN1C(=O)CC[C@H]1c1cccnc1`
0.0

Record request — test call for `O=CCCCC=O`
1.0

Record request — test call for `O=C(Nc1ccc(Cl)cc1)Nc1ccc(Cl)c(Cl)c1`
0.0

Record request — test call for `Cc1cccc2ccccc12`
0.0

Record request — test call for `CCCCCc1ccc(N)cc1`
0.0
